- target desc: hRSV FTM- NN protein (membrane anchorless form of the Long fusion protein, 70 kDa) (hRSV strain Long)
- assay info: SPR (Biacore T100), FTM- NN amine-coupled, 1:1 Langmuir fit
We begin with a simple list: items and their reported kon.
Param answer (str): number followed by unit.

For orientation, consider the following solved cases.
{"binder": "Nanobody 1E4 (VHH) VHH: EVQLVESGGGLVQAGGSLRLSCEASGRTFSSYGMGWFRQAPGKEREFVAAVSRLSGPRTVYADSVKGRFTISRDNAENTVYLQMNSLKPEDTAVYTCAAELTNRNPGAYYYTWAYDYWGQGTQVTVSS", "kon": "800000 M⁻¹ s⁻¹"}
{"binder": "Nanobody NC23 (VHH) VHH: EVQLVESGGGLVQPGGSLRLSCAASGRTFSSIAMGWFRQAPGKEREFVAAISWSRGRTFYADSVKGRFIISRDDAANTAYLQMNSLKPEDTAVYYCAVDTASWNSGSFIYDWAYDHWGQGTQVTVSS", "kon": "800000 M⁻¹ s⁻¹"}
{"binder": "Nanobody 7B2 (VHH) VHH: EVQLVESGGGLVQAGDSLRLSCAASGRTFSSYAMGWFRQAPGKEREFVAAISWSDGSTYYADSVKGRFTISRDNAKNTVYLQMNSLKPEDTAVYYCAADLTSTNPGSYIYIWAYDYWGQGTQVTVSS", "kon": "570000 M⁻¹ s⁻¹"}
{"binder": "Nanobody 15H8 (VHH) VHH: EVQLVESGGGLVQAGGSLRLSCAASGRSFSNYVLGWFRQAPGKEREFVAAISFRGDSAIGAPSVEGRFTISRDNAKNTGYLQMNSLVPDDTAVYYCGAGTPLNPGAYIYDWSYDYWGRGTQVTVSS", "kon": "1.2e+06 M⁻¹ s⁻¹"}
{"binder": "Nanobody NC41 (VHH) VHH: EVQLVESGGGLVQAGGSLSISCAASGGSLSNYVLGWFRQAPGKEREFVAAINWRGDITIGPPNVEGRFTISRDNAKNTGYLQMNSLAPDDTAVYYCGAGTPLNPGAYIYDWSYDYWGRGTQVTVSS", "kon": "820000 M⁻¹ s⁻¹"}
{"binder": "Nanobody 191D3 (VHH) VHH: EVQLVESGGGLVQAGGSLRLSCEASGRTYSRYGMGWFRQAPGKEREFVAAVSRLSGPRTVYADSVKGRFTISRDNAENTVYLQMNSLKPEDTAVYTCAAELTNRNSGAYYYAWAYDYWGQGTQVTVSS", "kon": "1.5e+06 M⁻¹ s⁻¹"}
{"binder": "Nanobody 15B3 (VHH) VHH: EVQLVESGGGLVQPGGSLRLSCAASGLTLDYYALGWFRQAPGKEREGVSCISSSDHSTTYTDSVKGRFTISWDNAKNTLYLQMNSLKPGDTAVYYCAADPALGCYSGSYYPRYDYWGQGTQVTVSS", "kon": "410000 M⁻¹ s⁻¹"}

Can you look up the measured kon of Nanobody 191E4 (VHH) VHH: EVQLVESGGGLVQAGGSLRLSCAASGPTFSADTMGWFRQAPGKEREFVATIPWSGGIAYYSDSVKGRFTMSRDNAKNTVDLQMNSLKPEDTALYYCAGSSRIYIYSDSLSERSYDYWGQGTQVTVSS for me? 570000 M⁻¹ s⁻¹
